Where do the numbers come from? From patent EP4752142A1.

Molecular target: 5-HT2A receptor (Homo sapiens, UniProt P28223)
Sequence (P28223 whole entry): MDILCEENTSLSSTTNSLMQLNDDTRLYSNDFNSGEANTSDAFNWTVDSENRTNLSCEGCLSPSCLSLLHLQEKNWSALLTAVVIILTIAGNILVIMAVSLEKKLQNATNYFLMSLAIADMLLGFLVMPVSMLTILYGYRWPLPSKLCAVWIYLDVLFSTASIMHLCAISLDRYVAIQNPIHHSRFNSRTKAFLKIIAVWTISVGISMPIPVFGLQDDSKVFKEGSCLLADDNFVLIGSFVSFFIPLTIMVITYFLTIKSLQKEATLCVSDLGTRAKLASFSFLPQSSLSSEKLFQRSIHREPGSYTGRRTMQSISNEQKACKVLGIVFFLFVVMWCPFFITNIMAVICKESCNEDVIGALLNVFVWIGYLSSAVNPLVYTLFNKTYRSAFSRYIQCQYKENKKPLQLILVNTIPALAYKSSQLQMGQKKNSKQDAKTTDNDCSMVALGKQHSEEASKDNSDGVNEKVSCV
Experiment: 5-HT2AR calcium flux activation assay
Type: cell-based
Set-up: expressed in transfected cells; host or cells: HEK293
Settings: HEK293 cells stably expressing human 5-HT2A receptor; Max Dose 100000 nM
Readout: Emax (%)
The reply should be a number in %, with the unit left off.

(Q) Need Emax, item CC(C)c1cnn(CCCN2CCC(c3c[nH]c4cccc(O)c34)C2)n1 (centres unmarked)
(A) 63.1

(Q) Now the compound Oc1cc(F)cc2[nH]cc(C3CCN(CCCn4nccn4)C3)c12 (centres unmarked)
(A) 52.4

(Q) What do you have for Oc1cccc2[nH]cc(C3CCN(CCCn4ncc(C5CC5)n4)C3)c12 (centres unmarked) ?
(A) 48.5

(Q) Please give the result for Cc1cnn(CCCN2CCC(c3c[nH]c4ccccc34)C2)n1 (centres unmarked) too.
(A) 49.7

(Q) Please do the same for c1ccc2c(C3CCN(CCCn4nccn4)CC3)c[nH]c2c1 [reference compound] as well.
(A) 25.5

(Q) And for Oc1cccc2[nH]cc(C3CCN(CCc4coc5ccccc45)C3)c12 (centres unmarked) ?
(A) 68.8

(Q) Thanks! And Cc1nc(C)n(CCCN2CCC(c3c[nH]c4ccccc34)C2)n1 (centres unmarked) ?
(A) 38.6

(Q) What about c1ccc2c(C3CCN(CCCc4ncon4)C3)c[nH]c2c1 (centres unmarked) ?
(A) 47.6

(Q) Could you do the same for c1ccc2c(C3CCN(CCc4nnc5ccccn45)C3)c[nH]c2c1 (centres unmarked) , please?
(A) 41.9

(Q) Try the compound Oc1cccc2[nH]cc([C@@H]3CCN(CCCn4nccn4)C3)c12
(A) 57.4

(Q) Note, next up: Cn1cc(CCCN2CCC(c3c[nH]c4cccc(O)c34)C2)cn1 (centres unmarked)
(A) 29.9

(Q) One more compound: c1ccc2c(C3CCN(CCCn4nccn4)C3)c[nH]c2c1 (centres unmarked)
(A) 62.9

(Q) Same read-out for Cc1cc(CCN2CCC(c3c[nH]c4cccc(F)c34)CC2)n[nH]1 [reference compound] ?
(A) 0.9

(Q) Same question for Oc1cccc2[nH]cc(C3CCN(CCCc4ncsn4)C3)c12 (centres unmarked) please.
(A) 67.7

(Q) Similarly, c1ccc2c([C@H]3CCN(CCCc4ncon4)C3)c[nH]c2c1 ?
(A) 40.2

(Q) Now consider Cc1cnn(CCCN2CCC(c3c[nH]c4cccc(O)c34)C2)n1 (centres unmarked) .
(A) 63.7

(Q) // repeat for Oc1cccc2[nH]cc(C3CCN(CCCn4nccn4)C3)c12 (centres unmarked) and report
(A) 59.3

(Q) Can you check COc1ccccc1CCCN1CCC(c2c[nH]c3cccc(O)c23)C1 (centres unmarked) next?
(A) 51.5

(Q) Moving on to Cc1nn(CCCN2CCC(c3c[nH]c4cccc(O)c34)C2)nc1C (racemic)
(A) 53.4

(Q) Proceed to Cc1nonc1CCCN1CCC(c2c[nH]c3ccccc23)C1 (centres unmarked)
(A) 46.7
